Tested on: CCRF-CEM
EXPERIMENT DESCRIPTION: Growth inhibition of human CCRF-CEM cells assessed as cell growth at 10^-4 M incubated for 48 hrs by sulforhodamine B assay relative to control
Format: functional
TEST CONTEXT: read-out: Activity
Listed below: growth at 100 µM values for each entry.
RECORDED METRIC: growth at 100 µM

C#C[C@@]1(O)[C@@H](CO)O[C@@H](n2cc(Cl)c3c(N)ncnc32)[C@@H]1O	2 to 5%
C#C[C@@]1(O)[C@@H](CO)O[C@@H](n2cc(Br)c3c(N)ncnc32)[C@@H]1O	3 to 4%
C#C[C@@]1(O)[C@@H](CO)O[C@@H](n2ccc3c(N)ncnc32)[C@@H]1O	9%
C#C[C@@]1(O)[C@@H](CO)O[C@@H](n2cc(F)c3c(N)ncnc32)[C@@H]1O	1%
C#C[C@@]1(O)[C@@H](CO)O[C@@H](n2cc(I)c3c(N)ncnc32)[C@@H]1O	2 to 8%

----------
Test system: OVCAR-3
EXPERIMENT DESCRIPTION: Growth inhibition of human OVCAR3 cells assessed as cell growth at 10^-8 M incubated for 48 hrs by sulforhodamine B assay relative to control
Type: functional
TEST CONTEXT: OVCAR-3, 48 h, read-out: Activity
RECORDED METRIC: growth at 0.01 µM (%)

C#C[C@@]1(O)[C@@H](CO)O[C@@H](n2cc(F)c3c(N)ncnc32)[C@@H]1O	106
C#C[C@@]1(O)[C@@H](CO)O[C@@H](n2ccc3c(N)ncnc32)[C@@H]1O	105

----------
Tested on: HL-60(TB)
EXPERIMENT DESCRIPTION: Growth inhibition of human HL-60(TB) cells assessed as cell growth at 10^-8 M incubated for 48 hrs by sulforhodamine B assay relative to control
Type: functional
TEST CONTEXT: HL-60, 48 h, read-out: Activity
Examples of compounds with documented growth at 0.01 µM follow.
RECORDED METRIC: growth at 0.01 µM (%)

C#C[C@@]1(O)[C@@H](CO)O[C@@H](n2cc(F)c3c(N)ncnc32)[C@@H]1O	93
C#C[C@@]1(O)[C@@H](CO)O[C@@H](n2cc(I)c3c(N)ncnc32)[C@@H]1O	83
C#C[C@@]1(O)[C@@H](CO)O[C@@H](n2ccc3c(N)ncnc32)[C@@H]1O	97

----------
System: OVCAR-8
EXPERIMENT DESCRIPTION: Growth inhibition of human OVCAR8 cells assessed as cell growth at 10^-6 M incubated for 48 hrs by sulforhodamine B assay relative to control
Type: functional
TEST CONTEXT: OVCAR-8, 48 h, read-out: Activity
growth at 1 µM values for the compounds below.
RECORDED METRIC: growth at 1 µM (%)

C#C[C@@]1(O)[C@@H](CO)O[C@@H](n2ccc3c(N)ncnc32)[C@@H]1O	51
C#C[C@@]1(O)[C@@H](CO)O[C@@H](n2cc(F)c3c(N)ncnc32)[C@@H]1O	15

----------
Tested on: NCI-H322M
EXPERIMENT DESCRIPTION: Growth inhibition of human NCI-H322M cells assessed as cell growth at 10^-6 M incubated for 48 hrs by sulforhodamine B assay relative to control
Assay type: functional
TEST CONTEXT: read-out: Activity
RECORDED METRIC: growth at 1 µM (%)

C#C[C@@]1(O)[C@@H](CO)O[C@@H](n2ccc3c(N)ncnc32)[C@@H]1O	58
C#C[C@@]1(O)[C@@H](CO)O[C@@H](n2cc(F)c3c(N)ncnc32)[C@@H]1O	31

----------
Tested on: NCI-H460
EXPERIMENT DESCRIPTION: Growth inhibition of human NCI-H460 cells assessed as cell growth at 10^-8 M incubated for 48 hrs by sulforhodamine B assay relative to control
Type: functional
TEST CONTEXT: NCI-H460, 48 h, read-out: Activity
RECORDED METRIC: growth at 0.01 µM (%)

C#C[C@@]1(O)[C@@H](CO)O[C@@H](n2cc(F)c3c(N)ncnc32)[C@@H]1O	100
C#C[C@@]1(O)[C@@H](CO)O[C@@H](n2ccc3c(N)ncnc32)[C@@H]1O	89

----------
Test system: HOP-62
EXPERIMENT DESCRIPTION: Growth inhibition of human HOP62 cells assessed as cell growth at 10^-6 M incubated for 48 hrs by sulforhodamine B assay relative to control
Assay type: functional
TEST CONTEXT: HOP-62, 48 h, read-out: Activity
RECORDED METRIC: growth at 1 µM (%)

C#C[C@@]1(O)[C@@H](CO)O[C@@H](n2cc(F)c3c(N)ncnc32)[C@@H]1O	33
C#C[C@@]1(O)[C@@H](CO)O[C@@H](n2ccc3c(N)ncnc32)[C@@H]1O	77

----------
System: HCC 2998
EXPERIMENT DESCRIPTION: Cytotoxicity against human HCC2998 cells after 48 hrs by SRB assay
Assay type: functional
TEST CONTEXT: HCC 2998, 48 h, read-out: TGI
Entries and their TGI
RECORDED METRIC: TGI (nM)

C#C[C@@]1(O)[C@@H](CO)O[C@@H](n2cc(F)c3c(N)ncnc32)[C@@H]1O	2820
C#C[C@@]1(O)[C@@H](CO)O[C@@H](n2ccc3c(N)ncnc32)[C@@H]1O	3120

----------
Test system: Malme-3M
EXPERIMENT DESCRIPTION: Growth inhibition of human MALME-3M cells assessed as cell growth at 10^-7 M incubated for 48 hrs by sulforhodamine B assay relative to control
Assay type: functional
TEST CONTEXT: read-out: Activity
RECORDED METRIC: growth at 0.1 µM (%)

C#C[C@@]1(O)[C@@H](CO)O[C@@H](n2ccc3c(N)ncnc32)[C@@H]1O	97
C#C[C@@]1(O)[C@@H](CO)O[C@@H](n2cc(F)c3c(N)ncnc32)[C@@H]1O	98

----------
Tested on: UO-31
EXPERIMENT DESCRIPTION: Growth inhibition of human UO31 cells assessed as cell growth at 10^-7 M incubated for 48 hrs by sulforhodamine B assay relative to control
Type: functional
TEST CONTEXT: UO-31, 48 h, read-out: Activity
Entries and their growth at 0.1 µM
RECORDED METRIC: growth at 0.1 µM (%)

C#C[C@@]1(O)[C@@H](CO)O[C@@H](n2cc(F)c3c(N)ncnc32)[C@@H]1O	104
C#C[C@@]1(O)[C@@H](CO)O[C@@H](n2ccc3c(N)ncnc32)[C@@H]1O	105

----------
// reported growth at 0.1 µM per item
Tested on: A498
EXPERIMENT DESCRIPTION: Growth inhibition of human A498 cells assessed as cell growth at 10^-7 M incubated for 48 hrs by sulforhodamine B assay relative to control
Type: functional
TEST CONTEXT: A498, 48 h, read-out: Activity
RECORDED METRIC: growth at 0.1 µM (%)

C#C[C@@]1(O)[C@@H](CO)O[C@@H](n2ccc3c(N)ncnc32)[C@@H]1O	105
C#C[C@@]1(O)[C@@H](CO)O[C@@H](n2cc(F)c3c(N)ncnc32)[C@@H]1O	95

----------
Tested on: SR
EXPERIMENT DESCRIPTION: Cytotoxicity against human SR cells after 48 hrs by SRB assay
Format: functional
TEST CONTEXT: read-out: TGI
Recorded TGI, one value per entry.
RECORDED METRIC: TGI

C#C[C@@]1(O)[C@@H](CO)O[C@@H](n2cc(Br)c3c(N)ncnc32)[C@@H]1O	> 100 µM
C#C[C@@]1(O)[C@@H](CO)O[C@@H](n2cc(F)c3c(N)ncnc32)[C@@H]1O	> 100 µM
C#C[C@@]1(O)[C@@H](CO)O[C@@H](n2ccc3c(N)ncnc32)[C@@H]1O	> 100 µM
C#C[C@@]1(O)[C@@H](CO)O[C@@H](n2cc(Cl)c3c(N)ncnc32)[C@@H]1O	> 100 µM
C#C[C@@]1(O)[C@@H](CO)O[C@@H](n2cc(I)c3c(N)ncnc32)[C@@H]1O	8.15 to 100 µM

----------
Test system: SK-MEL-2
EXPERIMENT DESCRIPTION: Growth inhibition of human SK-MEL-2 cells assessed as cell growth at 10^-8 M incubated for 48 hrs by sulforhodamine B assay relative to control
Assay type: functional
TEST CONTEXT: SK-MEL-2, 48 h, read-out: Activity
RECORDED METRIC: growth at 0.01 µM (%)

C#C[C@@]1(O)[C@@H](CO)O[C@@H](n2cc(F)c3c(N)ncnc32)[C@@H]1O	103
C#C[C@@]1(O)[C@@H](CO)O[C@@H](n2ccc3c(N)ncnc32)[C@@H]1O	88

----------
System: SF-539
EXPERIMENT DESCRIPTION: Growth inhibition of human SF539 cells assessed as cell growth at 10^-7 M incubated for 48 hrs by sulforhodamine B assay relative to control
Type: functional
TEST CONTEXT: SF-539, 48 h, read-out: Activity
RECORDED METRIC: growth at 0.1 µM (%)

C#C[C@@]1(O)[C@@H](CO)O[C@@H](n2ccc3c(N)ncnc32)[C@@H]1O	103
C#C[C@@]1(O)[C@@H](CO)O[C@@H](n2cc(F)c3c(N)ncnc32)[C@@H]1O	107

Attribution: ChEMBL document CHEMBL4270599
